TARGET_SYSTEM: FIXa (Homo sapiens, UniProt P00740)
Construct: FIXa was obtained from Haematologics; purchased Haematologics
Sequence (P00740 227-461 limits assumed): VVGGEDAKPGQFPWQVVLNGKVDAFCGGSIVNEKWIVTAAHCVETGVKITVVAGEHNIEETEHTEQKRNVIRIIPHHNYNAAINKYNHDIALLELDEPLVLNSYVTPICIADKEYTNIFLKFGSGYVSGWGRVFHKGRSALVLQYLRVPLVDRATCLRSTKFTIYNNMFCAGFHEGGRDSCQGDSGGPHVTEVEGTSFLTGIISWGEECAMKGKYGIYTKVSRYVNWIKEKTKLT
Sequence (P00740 47-191 partner limits assumed): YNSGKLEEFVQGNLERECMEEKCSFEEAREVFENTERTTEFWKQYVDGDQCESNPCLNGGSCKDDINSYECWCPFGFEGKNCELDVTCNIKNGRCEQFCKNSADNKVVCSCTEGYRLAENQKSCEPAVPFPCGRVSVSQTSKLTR
ASSAY_TEXT: Score assay, FIXa (chromogenic substrate Pefachrome IXa)
Format: biochemical
Parameters: key: fold increase in inhibitor conc / inhibitor conc used (mM)
TEST_PARAMETERS: Table 1 comparators; Score = fold increase in inhibitor concentration / concentration of inhibitor used (in mM); single concentration, 37° C., pH 7.4; higher = more effective
PROPERTY: FIXa score

Give its FIXa score value. Item: Br.N=C(N)NC(=N)Nc1cc(F)cc(F)c1Br [compound 929]
1.6

Entry Br.Cc1ccc(I)cc1NC(=N)NC(=N)N [compound 930] has what FIXa score?
0.6

I would be grateful if you could share the reported FIXa score for Br.COC(=O)c1cccc(CSC(=N)N)c1 [compound 887] .
0.9

Tell me the measured FIXa score of Br.N=C(N)NC(=N)Nc1ccc(I)cc1 [compound 932] , please.
0.3

Param item = Br.N=C(N)SCc1cccc(I)c1 [compound 885] ; retrieve measured FIXa score.
0.6

Query (compound): Br.CC(C)c1ccc(NC(=N)NC(=N)N)c(Br)c1 [compound 931] ; field requested: FIXa score
0.8
